Target: Human liver cathepsin D (Homo sapiens)
Construct: purchased Athens Research and Technology, Athens, Ga; host or cells: human liver
Sequence (P07339 169-412 limits assumed): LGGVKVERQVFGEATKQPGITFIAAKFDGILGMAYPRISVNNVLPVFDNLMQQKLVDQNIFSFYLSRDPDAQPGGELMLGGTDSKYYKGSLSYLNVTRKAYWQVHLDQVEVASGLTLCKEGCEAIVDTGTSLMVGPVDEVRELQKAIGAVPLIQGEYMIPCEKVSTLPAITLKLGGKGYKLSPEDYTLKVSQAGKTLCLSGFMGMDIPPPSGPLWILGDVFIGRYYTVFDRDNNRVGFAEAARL
Sequence (P07339 65-161 limits assumed): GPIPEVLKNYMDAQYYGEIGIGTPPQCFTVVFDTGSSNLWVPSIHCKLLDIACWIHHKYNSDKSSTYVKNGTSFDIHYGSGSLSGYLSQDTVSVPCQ
Assay: Cathepsin D inhibition, fluorometric assay (Tables 5 and 6)
Type: biochemical
Conditions: Compound Stock Concentration 10.0 μg/ml
I'd appreciate it if you could supply inhibition at 10 µg/mL (stock) values for the items below.
Give bare numbers, in %.

Consider the worked cases shown below.
[[record]]
molecular_string = "O=C1NC(=S)SC1=Cc1ccc(Oc2ccccc2)cc1"
reading = 76

[[record]]
molecular_string = "CC(C)(C)c1cc(C=C2SC(=S)NC2=O)cc(CSc2ccccc2)c1O"
reading = 76

[[record]]
molecular_string = "O=C1NC(=S)SC1=C(c1ccccc1)c1ccccc1"
reading = 50


Each of the following entries comes with a recorded value; kindly state inhibition at 10 µg/mL (stock) for each.
1. O=C1NC(=S)SC1=Cc1ccc(O)cc1
2. CCCCCCCOc1ccc(C=C2SC(=S)NC2=O)cc1OC

[reply]
1. 64
2. 88.5

Each of the following entries comes with a recorded value; kindly state inhibition at 10 µg/mL (stock) for each.
1. COc1ccc(C=C2SC(=S)NC2=O)cc1
2. CN(C)c1ccc(C=C2SC(=S)NC2=O)cc1
3. CS(=O)(=O)Nc1cccc(C=C2SC(=S)NC2=O)c1
4. O=C1NC(=S)SC1=Cc1cccc(Oc2ccccc2)c1
5. O=C1NC(=S)SC1=Cc1ccc(-c2ccccc2)cc1
6. CC(=C1SC(=S)NC1=O)c1ccc2ccccc2c1
7. O=C1NC(=S)SC1=Cc1cccc2ccccc12

[reply]
[38, 73.5, 36, 87, 87.5, 32, 43]

Measured values drawn from patent US5523314A for this set.
